Target Or Test System: myeloperoxidase (Homo sapiens, UniProt P05164)
Assay Overview: MPO Peroxidation Assay (Amplex Red Assay)
Assay type: biochemical
Condition Summary: potency range class, read-out: Amplex Red Assay IC50 value
pIC50: −log10 of the molar value. Where a name gives a salt, the structure may show the parent alone.
Measured Quantity: pIC50

1. Nc1cc([C@H](CC(=O)NC2CCC(c3ccccc3)c3ccccc32)c2ccccc2)c2nn[nH]c2n1 (stereo partly shown): 5.00 to 6.00
2. CC(NCCC(c1ccccc1)c1cc(N)nc2[nH]nnc12)c1ccccc1 (single isomer, unassigned) [Example 13]: 6.00 to 7.00
3. Nc1cc(C(CCNC2CCC(c3ccc(Cl)c(Cl)c3)c3ccccc32)c2ccccc2)c2nn[nH]c2n1 (stereo not shown): 7.00 to 9.00
4. Nc1cc([C@H](Cc2nc3c(-c4cccc(C5CC5)c4)cccc3[nH]2)c2ccccc2)c2nn[nH]c2n1: 5.00 to 6.00
5. Nc1cc(C(CCCN2CC(c3ccc(F)cc3)c3ccccc32)c2ccccc2)c2nn[nH]c2n1 (stereo not shown): 5.00 to 6.00
6. Nc1cc(C(CCNC2CCC(c3ccc(F)cc3)CC2)c2ccccc2)c2nn[nH]c2n1 (stereo not shown) [Example 112]: 6.00 to 7.00
7. Nc1cc(C(CCN2CCC(Cc3ccccc3)CC2)c2ccccc2)c2nn[nH]c2n1 (stereo not shown): 5.00 to 6.00
8. Nc1cc(C(CCNCc2ccccc2Oc2ccccc2)c2ccccc2)c2nn[nH]c2n1 (stereo not shown): 6.00 to 7.00
9. Nc1cc(C(Cc2ccccc2)c2ccccc2F)c2nn[nH]c2n1 (single isomer, unassigned): 7.00 to 9.00
10. Nc1cc(C(CCN[C@H]2CC[C@H](c3ccccc3)CC2)c2cccc(CO)c2)c2nn[nH]c2n1 (stereo partly shown): 5.00 to 6.00
11. Nc1cc([C@H](CCO)c2ccccc2)c2nn[nH]c2n1: 6.00 to 7.00
12. Nc1cc(C(CCN[C@H]2CCc3c(Cl)cccc32)c2ccccc2)c2nn[nH]c2n1 (stereo partly shown): 5.00 to 6.00
13. CN(C)C(=O)c1cccc(CNCCC(c2ccccc2)c2cc(N)nc3[nH]nnc23)c1 (stereo not shown): 6.00 to 7.00
14. Nc1cc([C@H](CCNC2CC[C@H](c3ccccc3)[C@@H](O)C2)c2ccccc2)c2nn[nH]c2n1 (stereo partly shown) [Example 184]: 6.00 to 7.00
15. Nc1cc(C(CCN[C@H]2CC[C@H](n3cncn3)CC2)c2ccccc2)c2nn[nH]c2n1 (stereo partly shown): 5.00 to 6.00
16. Nc1cc(C(CCN[C@H]2CC[C@H](c3ccccc3)CC2)c2cccc(F)c2)c2nn[nH]c2n1 (stereo partly shown): 6.00 to 7.00
17. Nc1cc(C(Cc2ccc(Cl)cc2)c2ccccc2)c2nn[nH]c2n1 (stereo not shown): 6.00 to 7.00
18. Nc1cc(C(CCCN2CCC(O)(c3ccccc3)CC2)c2ccccc2)c2nn[nH]c2n1 (stereo not shown): 6.00 to 7.00
19. NC(=O)c1ccc(-c2cccc3[nH]c(C[C@H](c4ccccc4)c4cc(N)nc5[nH]nnc45)nc23)cc1: 6.00 to 7.00
20. Nc1cc(C(CCNC2CCC(c3cccc(Cl)c3)CC2)c2ccccc2)c2nn[nH]c2n1 (stereo not shown): 5.00 to 6.00
21. N#Cc1cccc(-c2cccc3[nH]c(C[C@H](c4ccccc4)c4cc(N)nc5[nH]nnc45)nc23)c1: 5.00 to 6.00
22. CC1C[C@@H](NCCC(c2ccccc2)c2cc(N)nc3[nH]nnc23)c2ccccc21 (stereo partly shown) [Example 88]: 6.00 to 7.00
23. Nc1cc(C(CCNC2CCC(c3ccc(F)cc3)CC2)c2ccccc2)c2nn[nH]c2n1 (stereo not shown) [Example 125]: 6.00 to 7.00
24. Nc1cc(C(CCC2CCCCC2)c2ccccc2)c2nn[nH]c2n1 (stereo not shown): 6.00 to 7.00
25. Nc1cc(C(CCCN2CCC(c3ccccc3)c3ccccc32)c2ccccc2)c2nn[nH]c2n1 (stereo not shown): 5.00 to 6.00
26. Nc1cc([C@H](CCCN2[C@@H]3CC[C@H]2C[C@](O)(c2ccc(Cl)cc2)C3)c2ccccc2)c2nn[nH]c2n1: 6.00 to 7.00
27. Nc1cc(C(CCNC2CCC(Cc3ccccc3)CC2)c2ccccc2)c2nn[nH]c2n1 (stereo not shown): 5.00 to 6.00
28. Nc1cc(C(CCNS(=O)(=O)c2ccccc2)c2ccccc2)c2nn[nH]c2n1 (stereo not shown) [Example 15, TFA]: 7.00 to 9.00
29. NC(=O)c1ccc(C2CCC(NCCC(c3ccccc3)c3cc(N)nc4[nH]nnc34)CC2)cc1 (stereo not shown) [Example 118]: 6.00 to 7.00
30. Nc1cc([C@H](CCN(CC(O)C(F)(F)F)C23CCC(c4ccccc4)(CC2)CC3)c2ccccc2)c2nn[nH]c2n1 (stereo partly shown): 7.00 to 9.00
31. Nc1cc([C@H](CCN(CC2CCO2)C23CCC(c4ccccc4)(CC2)CC3)c2ccccc2)c2nn[nH]c2n1 (stereo partly shown): 7.00 to 9.00

---

# IC50 listing for each entry below
Target Or Test System: myeloperoxidase (Homo sapiens)
Assay Overview: MPO Chlorination Assay (APF Assay)
Assay type: biochemical
Condition Summary: potency range class, read-out: APF Assay IC50 value
Measured Quantity: IC50

1. NC(=O)c1cccc(-c2cccc3[nH]c(C[C@H](c4ccccc4)c4cc(N)nc5[nH]nnc45)nc23)c1 [Example 245]: 1 to 100 nM
2. Nc1cc(C(CCN[C@@H]2CCc3ccc(F)cc32)c2ccccc2)c2nn[nH]c2n1 (stereo partly shown) [Example 60]: 1 to 100 nM
3. Nc1cc([C@H](CCN(CC2CCCO2)C23CCC(c4ccccc4)(CC2)CC3)c2ccccc2)c2nn[nH]c2n1 (stereo partly shown) [Example 195]: 1 to 100 nM
4. Nc1cc([C@H](CCNC2CC[C@H](c3ccccc3)[C@@H](O)C2)c2ccccc2)c2nn[nH]c2n1 (stereo partly shown) [Example 184]: 1 to 100 nM
5. Nc1cc([C@H](Cc2nc3ccccc3[nH]2)c2ccccc2)c2nn[nH]c2n1 [Example 261]: 1000 to 10000 nM
6. Nc1cc(C(Cc2cccc(O)c2)c2ccccc2)c2nn[nH]c2n1 (stereo not shown) [Example 230]: 1000 to 10000 nM
7. COC1CC2(NCCC(c3ccccc3)c3cc(N)nc4[nH]nnc34)CCC1(c1ccccc1)CC2 (stereo not shown) [Example 148]: 1 to 100 nM
8. CC1C[C@H](NCCC(c2ccccc2)c2cc(N)nc3[nH]nnc23)c2ccccc21 (stereo partly shown) [Example 99]: 1 to 100 nM
9. Nc1cc(C(CCN[C@H]2CCc3ccc(F)cc32)c2ccccc2)c2nn[nH]c2n1 (stereo partly shown) [Example 57]: 1 to 100 nM
10. Nc1cc(C(CCNC2CCC(Cc3ccccc3)CC2)c2ccccc2)c2nn[nH]c2n1 (stereo not shown) [Example 129]: 1 to 100 nM
11. Nc1cc(C(CCNCc2ccccc2OC(F)(F)F)c2ccccc2)c2nn[nH]c2n1 (stereo not shown) [Example 89]: 101 to 999 nM
12. Nc1cc(C(CCO[C@H]2CC[C@H](c3ccccc3)CC2)c2ccccc2)c2nn[nH]c2n1 (stereo partly shown) [Example 223]: 101 to 999 nM
13. Nc1cc(C(CCNC2CC3CCC(C2)C3c2ccccc2)c2ccccc2)c2nn[nH]c2n1 (stereo not shown) [Example 149]: 101 to 999 nM
14. CC1C[C@@H](NCCC(c2ccccc2)c2cc(N)nc3[nH]nnc23)c2ccccc21 (stereo partly shown) [Example 98]: 1 to 100 nM
15. Nc1cc(C(CCN[C@H]2CC[C@H](n3cncn3)CC2)c2ccccc2)c2nn[nH]c2n1 (stereo partly shown) [Example 146]: 101 to 999 nM
16. Nc1cc(C(CCNCC23CC4CC(CC(C4)C2)C3)c2ccccc2)c2nn[nH]c2n1 (stereo not shown) [Example 22]: 101 to 999 nM

---

Target Or Test System: UniProtKB P05164
Sequence (P05164 49-745): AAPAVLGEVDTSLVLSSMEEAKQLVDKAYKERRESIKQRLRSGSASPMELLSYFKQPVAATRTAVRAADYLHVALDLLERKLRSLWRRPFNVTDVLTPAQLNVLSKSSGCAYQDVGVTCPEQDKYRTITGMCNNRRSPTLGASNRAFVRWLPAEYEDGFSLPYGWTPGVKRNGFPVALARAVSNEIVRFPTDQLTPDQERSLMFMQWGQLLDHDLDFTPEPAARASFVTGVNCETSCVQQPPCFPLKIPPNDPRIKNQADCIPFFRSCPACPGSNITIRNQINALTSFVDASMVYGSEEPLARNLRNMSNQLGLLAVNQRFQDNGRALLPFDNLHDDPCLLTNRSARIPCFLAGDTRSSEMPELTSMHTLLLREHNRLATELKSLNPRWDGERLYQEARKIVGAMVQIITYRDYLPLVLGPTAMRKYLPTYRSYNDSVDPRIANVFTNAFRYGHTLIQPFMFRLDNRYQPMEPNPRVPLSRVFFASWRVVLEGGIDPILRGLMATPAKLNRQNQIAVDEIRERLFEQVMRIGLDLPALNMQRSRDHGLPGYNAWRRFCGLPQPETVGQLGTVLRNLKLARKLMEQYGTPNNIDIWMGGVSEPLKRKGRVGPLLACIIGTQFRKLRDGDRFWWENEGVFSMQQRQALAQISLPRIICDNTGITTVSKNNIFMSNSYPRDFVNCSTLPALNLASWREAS
Assay Overview: MPO Peroxidation Assay (Amplex Red Assay)
Assay type: biochemical
Condition Summary: potency range class, read-out: Amplex Red Assay IC50 value
Measured Quantity: IC50

1) N#Cc1cc(-c2ccccc2)c2nc(C[C@H](c3ccccc3)c3cc(N)nc4[nH]nnc34)[nH]c2c1: 1000 to 10000 nM
2) NC(=O)c1cccc(-c2cccc3[nH]c(C[C@H](c4ccccc4)c4cc(N)nc5[nH]nnc45)nc23)c1: 101 to 999 nM
3) N#Cc1cccc(C(CCNC23CCC(c4ccccc4)(CC2)CC3)c2cc(N)nc3[nH]nnc23)c1 (stereo not shown): 1 to 100 nM
4) NC(=O)c1cccc(CNCCC(c2ccccc2)c2cc(N)nc3[nH]nnc23)c1 (stereo not shown): 101 to 999 nM
5) CN(C)C(=O)CN(CC[C@H](c1ccccc1)c1cc(N)nc2[nH]nnc12)C12CCC(c3ccccc3)(CC1)CC2: 1000 to 10000 nM
6) Nc1cc(C(CCNC2CCN(c3ccccc3)CC2)c2ccccc2)c2nn[nH]c2n1 (stereo not shown): 1000 to 10000 nM
7) Nc1cc([C@H](Cc2nc3c(-c4ccccc4)cc(Cl)cc3[nH]2)c2ccccc2)c2nn[nH]c2n1: 101 to 999 nM
